# Tested on: IGROV-1
# experiment_summary: SRB colorimetric assay of cell growth and viability, IGROV-1
# Assay type: cell-based, human
# conditions_used: 48 hours exposure
Where a SMILES comes first, the peptide text is derived from it. Bridges are numbered along the chain shown (N, C = ends). [ ]: non-standard residue; d: D form. The star is where a group is joined. d(aIle) = CC[C@H](C)[C@@H](N)C(=O)O; d(aThr) = C[C@@H](O)[C@@H](N)C(=O)O; Hexanoyl(5-Me) = CC(C)CCCC(=O)*; Myristoyl = CCCCCCCCCCCCCC(=O)*; dCha = N[C@H](CC1CCCCC1)C(=O)O; Orn = NCCC[C@H](N)C(=O)O; Dhb = C/C=C(\N)C(=O)O
endpoint_name: LC50 (concentration causing 50% net cell killing) (µM)

molecule | sign_qualifier | test_result
C/C=C1\NC(=O)[C@H](Cc2ccccc2)NC(=O)[C@@H](C(C)C)NC(=O)[C@@H]([C@@H](C)CC)NC(=O)[C@H](NC(=O)[C@H](NC(=O)[C@H](CCCN)NC(=O)[C@H]2CCCN2C(=O)[C@H](NC(=O)[C@@H](NC(=O)[C@H](CCC(N)=O)NC(=O)CCCC(C)C)C(C)C)C(C)C)[C@@H](C)CC)[C@@H](C)OC(=O)[C@H](C(C)C)NC1=O [Compound 58, [Gln^12, noD-Val^13]-KF] ({Hexanoyl(5-Me)}-QV[dV][dP][Orn][d(aIle)][d(aThr)][d(aIle)][dV]F[Dhb]V; ester 7-C) | ≥ | 7.11
C/C=C1\NC(=O)[C@H](Cc2ccccc2)NC(=O)[C@@H](C(C)C)NC(=O)[C@@H]([C@@H](C)CC)NC(=O)[C@H](NC(=O)[C@H](NC(=O)[C@H](CCCN)NC(=O)[C@H]2CCCN2C(=O)[C@H](NC(=O)[C@@H](NC(=O)[C@@H](NC(=O)[C@H](NC(=O)CCCCC(C)(F)F)C(C)C)[C@@H](C)O)C(C)C)C(C)C)[C@@H](C)CC)[C@@H](C)OC(=O)[C@H](C(C)C)NC1=O [Compound 28, [6,6-dFHep^14]-KF] | = | 2.55
C/C=C1\NC(=O)[C@H](Cc2ccccc2)NC(=O)[C@@H](C(C)C)NC(=O)[C@@H](C(C)C)NC(=O)[C@H](NC(=O)[C@H](NC(=O)[C@H](CCCN)NC(=O)[C@H]2CCCN2C(=O)[C@H](NC(=O)[C@@H](NC(=O)[C@@H](NC(=O)[C@H](NC(=O)CCCC(C)C)C(C)C)[C@@H](C)O)C(C)C)C(C)C)C(C)C)[C@@H](C)OC(=O)[C@H](C(C)C)NC1=O [Compound 12, [D-Val^5, D-Val^7]-KF] ({Hexanoyl(5-Me)}-[dV]TV[dV][dP][Orn][dV][d(aThr)][dV][dV]F[Dhb]V; ester 8-C) | = | 4.93
C/C=C1\NC(=O)[C@H](Cc2ccccc2)NC(=O)[C@@H](C(C)C)NC(=O)[C@@H]([C@@H](C)CC)NC(=O)[C@H](NC(=O)[C@H](NC(=O)[C@H](CCCN)NC(=O)[C@H]2CCCN2C(=O)[C@H](NC(=O)[C@H](C)NC(=O)[C@@H](NC(=O)[C@H](NC(=O)CCCC(C)C)C(C)C)[C@@H](C)O)C(C)C)[C@@H](C)CC)[C@@H](C)OC(=O)[C@H](C(C)C)NC1=O [Compound 44, [Ala^11]-KF] ({Hexanoyl(5-Me)}-[dV]TA[dV][dP][Orn][d(aIle)][d(aThr)][d(aIle)][dV]F[Dhb]V; ester 8-C) | = | 5.72
C/C=C1\NC(=O)[C@H](Cc2ccccc2)NC(=O)[C@@H](C(C)C)NC(=O)[C@@H]([C@@H](C)CC)NC(=O)[C@H](NC(=O)[C@H](NC(=O)[C@H](CCCN)NC(=O)[C@H]2CCCN2C(=O)[C@H](NC(=O)[C@@H](NC(=O)[C@@H](NC(=O)[C@H](NC(=O)CCCCCCCCCCCCCCCCCCC)C(C)C)[C@@H](C)O)C(C)C)C(C)C)[C@@H](C)CC)[C@@H](C)OC(=O)[C@H](C(C)C)NC1=O [Compound 13, [Icos^14]-KF] | = | 4.68
C/C=C1\NC(=O)[C@H](Cc2ccccc2)NC(=O)[C@@H](C(C)C)NC(=O)[C@@H]([C@@H](C)CC)NC(=O)[C@H](NC(=O)[C@H](NC(=O)[C@H](CCCN)NC(=O)[C@H]2CCCN2C(=O)[C@H](NC(=O)[C@@H](NC(=O)CNC(=O)CCCC(C)C)C(C)C)C(C)C)[C@@H](C)CC)[C@@H](C)OC(=O)[C@H](C(C)C)NC1=O [Compound 53, [Gly^12, noD-Val^13]-KF] ({Hexanoyl(5-Me)}-GV[dV][dP][Orn][d(aIle)][d(aThr)][d(aIle)][dV]F[Dhb]V; ester 7-C) | = | 7.49
C/C=C1\NC(=O)[C@H](Cc2ccccc2)NC(=O)[C@@H](C(C)C)NC(=O)[C@@H]([C@@H](C)CC)NC(=O)[C@H](NC(=O)[C@H](NC(=O)[C@H](CCCN)NC(=O)[C@H]2CCCN2C(=O)[C@H](NC(=O)CCCCCCCCCCCCC)C(C)C)[C@@H](C)CC)[C@@H](C)OC(=O)[C@H](C(C)C)NC1=O [Compound 32] (Myristoyl-[dV][dP][Orn][d(aIle)][d(aThr)][d(aIle)][dV]F[Dhb]V; ester 5-C) | = | 5.51
C/C=C1\NC(=O)[C@H](Cc2ccccc2)NC(=O)[C@@H](C(C)C)NC(=O)[C@@H]([C@@H](C)CC)NC(=O)[C@H](NC(=O)[C@H](NC(=O)[C@H](CCCN)NC(=O)[C@H]2CCCN2C(=O)[C@H](NC(=O)[C@@H](NC(=O)[C@@H]2CCCN2C(=O)CCCC(C)C)C(C)C)C(C)C)[C@@H](C)CC)[C@@H](C)OC(=O)[C@H](C(C)C)NC1=O [Compound 55, [Pro^12, noD-Val^13]-KF] ({Hexanoyl(5-Me)}-PV[dV][dP][Orn][d(aIle)][d(aThr)][d(aIle)][dV]F[Dhb]V; ester 7-C) | = | 7.27
C/C=C1\NC(=O)[C@H](Cc2ccccc2)NC(=O)[C@@H](CC2CCCCC2)NC(=O)[C@@H](CC2CCCCC2)NC(=O)[C@H](NC(=O)[C@@H](CC2CCCCC2)NC(=O)[C@H](CCCN)NC(=O)[C@H]2CCCN2C(=O)[C@H](NC(=O)[C@@H](NC(=O)[C@@H](NC(=O)[C@H](NC(=O)CCCC(C)C)C(C)C)[C@@H](C)O)C(C)C)C(C)C)[C@@H](C)OC(=O)[C@H](C(C)C)NC1=O [Compound 11, [D-Cha^4, D-Cha^5, D-Cha^7]-KF] ({Hexanoyl(5-Me)}-[dV]TV[dV][dP][Orn][dCha][d(aThr)][dCha][dCha]F[Dhb]V; ester 8-C) | = | 2.99
